# TEST DESCRIPTION: Inhibition of rat small intestinal maltase using maltose as substrate incubated for 30 mins by glucose-oxidase method
pIC50: −log10 of the molar value.
Classification field: enter rule met for pIC50 values not below 6, rule not met for values below it.

Reference set (3 entries):
COMPOUND: CC(C)(C)CO[C@@H](CO)[C@H](O)C[S+]1C[C@@H](O)[C@H](O)[C@H]1CO (some centres undefined)
QUALITATIVE LABEL: rule met
--
COMPOUND: OC[C@@H]1[C@@H](O)[C@H](O)C[S+]1C[C@@H](O)[C@@H](O)CO (some centres undefined)
QUALITATIVE LABEL: rule not met
--
COMPOUND: O=S(=O)([O-])O[C@@H](CO)[C@H](O)C[S+]1C[C@@H](O)[C@H](O)[C@H]1CO (some centres undefined)
QUALITATIVE LABEL: rule not met

Entry OCCN1C[C@H](O)[C@@H](O)[C@H](O)[C@H]1CO [MIGLITOL] : is its pIC50 no less than 6?
rule not met

Entry O=[N+]([O-])c1ccccc1CO[C@@H](CO)[C@H](O)C[S@@+]1C[C@@H](O)[C@H](O)[C@H]1CO : is its pIC50 no less than 6?
rule met

Entry CO[C@@H](CO)[C@H](O)C[S+]1C[C@@H](O)[C@H](O)[C@H]1CO (some centres undefined) : is its pIC50 no less than 6?
rule not met

###

# SYSTEM UNDER TEST: Sucrase-isomaltase, intestinal (Rattus norvegicus, UniProt P23739)
# Sequence (P23739 1-1013 limits assumed): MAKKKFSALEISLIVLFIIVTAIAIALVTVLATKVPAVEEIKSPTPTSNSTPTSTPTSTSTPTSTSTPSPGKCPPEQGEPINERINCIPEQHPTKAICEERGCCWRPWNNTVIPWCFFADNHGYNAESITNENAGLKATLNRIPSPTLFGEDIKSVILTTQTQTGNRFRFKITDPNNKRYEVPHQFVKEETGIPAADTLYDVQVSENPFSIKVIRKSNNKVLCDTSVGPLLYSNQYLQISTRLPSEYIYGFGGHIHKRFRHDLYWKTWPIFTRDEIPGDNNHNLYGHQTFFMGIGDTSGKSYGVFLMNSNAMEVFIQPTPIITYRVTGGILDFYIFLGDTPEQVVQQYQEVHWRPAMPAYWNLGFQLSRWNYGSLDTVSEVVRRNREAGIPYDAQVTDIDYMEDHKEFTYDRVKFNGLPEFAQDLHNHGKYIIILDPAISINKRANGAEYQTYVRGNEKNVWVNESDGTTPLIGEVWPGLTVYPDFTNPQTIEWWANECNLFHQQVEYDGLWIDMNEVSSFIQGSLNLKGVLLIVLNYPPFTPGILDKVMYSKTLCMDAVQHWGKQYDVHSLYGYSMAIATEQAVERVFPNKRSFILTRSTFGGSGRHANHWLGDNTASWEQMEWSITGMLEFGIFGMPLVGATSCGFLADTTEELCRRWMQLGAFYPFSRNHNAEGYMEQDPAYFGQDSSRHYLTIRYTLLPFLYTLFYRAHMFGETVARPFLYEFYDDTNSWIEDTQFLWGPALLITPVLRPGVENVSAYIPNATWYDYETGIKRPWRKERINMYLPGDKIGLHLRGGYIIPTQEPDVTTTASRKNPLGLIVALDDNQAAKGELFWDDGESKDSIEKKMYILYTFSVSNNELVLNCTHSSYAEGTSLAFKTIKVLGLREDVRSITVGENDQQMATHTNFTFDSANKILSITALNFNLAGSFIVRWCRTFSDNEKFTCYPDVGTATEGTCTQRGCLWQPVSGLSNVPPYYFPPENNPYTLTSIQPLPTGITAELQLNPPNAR
# Sequence (P23739 1014-1841 limits assumed): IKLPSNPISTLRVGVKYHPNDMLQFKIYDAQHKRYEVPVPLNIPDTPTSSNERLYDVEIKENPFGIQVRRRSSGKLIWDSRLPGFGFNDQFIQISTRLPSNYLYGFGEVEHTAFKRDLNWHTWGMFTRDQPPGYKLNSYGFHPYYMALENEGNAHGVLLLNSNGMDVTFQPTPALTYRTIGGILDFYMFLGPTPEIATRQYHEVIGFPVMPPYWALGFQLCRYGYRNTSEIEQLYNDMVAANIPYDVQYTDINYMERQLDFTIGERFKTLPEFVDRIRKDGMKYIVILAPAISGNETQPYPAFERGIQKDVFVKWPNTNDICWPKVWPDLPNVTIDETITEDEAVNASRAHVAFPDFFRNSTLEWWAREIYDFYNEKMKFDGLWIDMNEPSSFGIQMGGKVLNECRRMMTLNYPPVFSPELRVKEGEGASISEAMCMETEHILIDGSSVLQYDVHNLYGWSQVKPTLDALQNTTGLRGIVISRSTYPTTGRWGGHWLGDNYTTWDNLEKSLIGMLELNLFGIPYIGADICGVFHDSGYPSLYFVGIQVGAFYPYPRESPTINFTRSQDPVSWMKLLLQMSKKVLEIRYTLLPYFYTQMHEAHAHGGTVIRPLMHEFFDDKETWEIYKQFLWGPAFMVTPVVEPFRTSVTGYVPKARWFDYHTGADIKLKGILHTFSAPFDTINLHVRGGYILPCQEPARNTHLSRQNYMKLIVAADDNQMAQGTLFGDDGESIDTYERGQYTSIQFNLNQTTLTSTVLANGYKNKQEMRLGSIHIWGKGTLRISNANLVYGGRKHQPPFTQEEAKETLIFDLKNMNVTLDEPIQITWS
# TEST DESCRIPTION: Inhibition of rat small intestinal isomaltase using isomaltose as substrate incubated for 30 mins by glucose-oxidase method
// assign T if IC50 falls strictly below 300 nM, else F (ties count as F)

Reference set (5 entries):
COMPOUND: CCO[C@@H](CO)[C@H](O)C[S+]1C[C@@H](O)[C@H](O)[C@H]1CO (stereo not given in full)
QUALITATIVE LABEL: T
--
COMPOUND: O=S(=O)([O-])O[C@@H](CO)[C@H](O)C[S+]1C[C@@H](O)[C@H](O)[C@H]1CO (stereo not given in full)
QUALITATIVE LABEL: F
--
COMPOUND: CC(C)CO[C@@H](CO)[C@H](O)C[S+]1C[C@@H](O)[C@H](O)[C@H]1CO (stereo not given in full)
QUALITATIVE LABEL: F
--
COMPOUND: CC(C)(C)CO[C@@H](CO)[C@H](O)C[S+]1C[C@@H](O)[C@H](O)[C@H]1CO (stereo not given in full)
QUALITATIVE LABEL: T
--
COMPOUND: CCCCCCCCCCCCCO[C@@H](CO)[C@H](O)C[S+]1C[C@@H](O)[C@H](O)[C@H]1CO (stereo not given in full)
QUALITATIVE LABEL: F

Continue with the next compound.
For O=[N+]([O-])c1ccccc1CO[C@@H](CO)[C@H](O)C[S@@+]1C[C@@H](O)[C@H](O)[C@H]1CO , is the recorded IC50 below the cut-off of 300 nM?
T

###

# SYSTEM UNDER TEST: Sucrase-isomaltase, intestinal (Rattus norvegicus, UniProt P23739)
# TEST DESCRIPTION: Inhibition of rat small intestinal sucrase using sucrose as substrate incubated for 30 mins by glucose-oxidase method
// assign MET if IC50 falls strictly below 500 nM, else NOT MET (ties count as NOT MET)

COMPOUND: O=S(=O)([O-])O[C@@H](CO)[C@H](O)C[S+]1C[C@@H](O)[C@H](O)[C@H]1CO (stereo not given in full)
QUALITATIVE LABEL: NOT MET
--
COMPOUND: CCCCCCCO[C@@H](CO)[C@H](O)C[S+]1C[C@@H](O)[C@H](O)[C@H]1CO (stereo not given in full)
QUALITATIVE LABEL: MET
--
COMPOUND: O=[N+]([O-])c1ccccc1CO[C@@H](CO)[C@H](O)C[S@@+]1C[C@@H](O)[C@H](O)[C@H]1CO
QUALITATIVE LABEL: MET
--
COMPOUND: CC(C)CO[C@@H](CO)[C@H](O)C[S+]1C[C@@H](O)[C@H](O)[C@H]1CO (stereo not given in full)
QUALITATIVE LABEL: MET

For CO[C@@H](CO)[C@H](O)C[S+]1C[C@@H](O)[C@H](O)[C@H]1CO (stereo not given in full) , is the recorded IC50 below the cut-off of 500 nM?
MET

For CC(C)(C)CO[C@@H](CO)[C@H](O)C[S+]1C[C@@H](O)[C@H](O)[C@H]1CO (stereo not given in full) , is the recorded IC50 below the cut-off of 500 nM?
MET

For CCCCCCCCCCCCCO[C@@H](CO)[C@H](O)C[S+]1C[C@@H](O)[C@H](O)[C@H]1CO (stereo not given in full) , is the recorded IC50 below the cut-off of 500 nM?
NOT MET

For OC[C@@H]1[C@@H](O)[C@H](O)C[S+]1C[C@@H](O)[C@@H](O)CO (stereo not given in full) , is the recorded IC50 below the cut-off of 500 nM?
NOT MET

For CCO[C@@H](CO)[C@H](O)C[S+]1C[C@@H](O)[C@H](O)[C@H]1CO (stereo not given in full) , is the recorded IC50 below the cut-off of 500 nM?
MET

###

# TEST DESCRIPTION: Inhibition of rat small intestinal maltase using maltose as substrate incubated for 30 mins by glucose-oxidase method
Task for the reader: assign each of the following compounds its reported pIC50.
Answers are plain numbers, as −log10 of the molar value.

COMPOUND: CC(C)CO[C@@H](CO)[C@H](O)C[S+]1C[C@@H](O)[C@H](O)[C@H]1CO (stereo partly drawn)
pIC50: 6.10

COMPOUND: CCCCCCCCCCCCCO[C@@H](CO)[C@H](O)C[S+]1C[C@@H](O)[C@H](O)[C@H]1CO (stereo partly drawn)
pIC50: 5.98

// pIC50 lookup, compound = CCCCCCCO[C@@H](CO)[C@H](O)C[S+]1C[C@@H](O)[C@H](O)[C@H]1CO (stereo partly drawn) , result: 6.10

###

# SYSTEM UNDER TEST: Sucrase-isomaltase, intestinal (Rattus norvegicus)
# TEST DESCRIPTION: Inhibition of rat small intestinal isomaltase using isomaltose as substrate incubated for 30 mins by glucose-oxidase method
PROPERTY MEASURED: IC50 (nM)
Answers are plain numbers, in nM.

COMPOUND: OC[C@@H]1[C@@H](O)[C@H](O)C[S+]1C[C@@H](O)[C@@H](O)CO (some centres undefined)
UNIT NAME: nM
IC50: 300

Provide reported IC50 for each item, in the same order as listed.
1. CCCCCO[C@@H](CO)[C@H](O)C[S+]1C[C@@H](O)[C@H](O)[C@H]1CO (some centres undefined)
2. CCCCCCCO[C@@H](CO)[C@H](O)C[S+]1C[C@@H](O)[C@H](O)[C@H]1CO (some centres undefined)
3. CO[C@@H](CO)[C@H](O)C[S+]1C[C@@H](O)[C@H](O)[C@H]1CO (some centres undefined)

[470, 250, 390]

All figures here come from ChEMBL document CHEMBL3813698.
